target: Estrogen receptor (Homo sapiens) (UniProt P03372); experiment: NVS_NR_hER: NovaScreen (NVS) Nuclear Receptor Binding Assay for human Estrogen Receptor (ER) (AID 2283348)
Sequence (P03372 whole entry, looked up): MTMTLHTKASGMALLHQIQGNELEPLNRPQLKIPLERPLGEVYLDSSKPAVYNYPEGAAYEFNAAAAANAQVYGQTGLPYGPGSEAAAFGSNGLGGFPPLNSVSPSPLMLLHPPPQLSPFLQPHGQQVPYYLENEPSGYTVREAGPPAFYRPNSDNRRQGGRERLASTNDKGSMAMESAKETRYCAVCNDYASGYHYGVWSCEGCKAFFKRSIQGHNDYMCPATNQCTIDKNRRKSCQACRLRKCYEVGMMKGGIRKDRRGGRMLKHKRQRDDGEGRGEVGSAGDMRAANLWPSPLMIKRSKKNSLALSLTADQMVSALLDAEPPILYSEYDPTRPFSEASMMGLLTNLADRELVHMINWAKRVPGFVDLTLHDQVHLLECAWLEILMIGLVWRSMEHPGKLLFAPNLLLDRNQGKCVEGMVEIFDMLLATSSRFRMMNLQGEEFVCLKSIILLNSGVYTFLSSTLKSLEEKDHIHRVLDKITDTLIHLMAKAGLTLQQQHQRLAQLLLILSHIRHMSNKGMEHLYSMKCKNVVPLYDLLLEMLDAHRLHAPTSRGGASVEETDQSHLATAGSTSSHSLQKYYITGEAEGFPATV
Records with an inconclusive call do not appear. Active and inactive are the calls of the source. The calls were made as follows: active = hit-call score of the fitted dose curve at least 0.9, where 1 is the maximum; inconclusive = response in the unintended direction; inactive = score below 0.9.
Outcome field: choose from TRUE = active, FALSE = inactive

Please review the following examples before continuing.
INSERT INTO results (compound, class) VALUES
  ('Oc1ccc2c(c1)Cc1ccccc1-2', 'TRUE'),
  ('CC(=O)CCc1ccc(OC(C)=O)cc1', 'FALSE'),
  ('O=S(=O)(O)c1cc(Cl)c(Cl)cc1Cl', 'FALSE');

QUERY: Can you look up the reported call for `CCCCCCCCCCCCSC#N` for me?
RESULT: FALSE

QUERY: # lookup: test call for CC1(O)CSC(C)(O)CS1 (stereo not drawn)
RESULT: FALSE

QUERY: Just curious, what result did `Cc1cc(Br)ccc1NC(=O)CCl` get here?
RESULT: FALSE

* * *

test: BSK_CASM3C_SRB: Viability Assessment in the BioMAP Diversity Plus: CASM3C Assay (AID 2283050); settings: primary human coronary artery smooth muscle cells;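 also: total protein by SRB staining as cytotoxicity measure in parallel cultures; cells exposed to compound for 24 h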
Calls of active or inactive are those of the source. The calls were made as follows: active = hit-call score of the fitted dose curve at least 0.9, where 1 is the maximum; inactive = score below 0.9.
Select the matching outcome among T = active, F = inactive

Check out these entries, answers already filled in.
INSERT INTO measurements (compound, class) VALUES
  ('CCC(C)=NO', 'F'),
  ('O=[N+]([O-])c1cc(S(=O)(=O)Nc2ccccc2)ccc1Nc1ccccc1', 'F'),
  ('Sc1nc2ccccc2s1', 'F'),
  ('CCCCCCC(O)CCCCCCCCCCC(=O)OC (configuration not stated)', 'F'),
  ('COc1ccccc1Oc1c(NS(=O)(=O)c2ccc(C(C)(C)C)cc2)nc(-c2ncccn2)nc1OCCO', 'F');

QUERY: State the result this test recorded for `CCCCCCCCCCCCCCCCCC[N+](C)(C)C` .
RESULT: T

QUERY: Tell me the recorded outcome of this test for `O=C(C(=O)c1ccccc1)c1ccccc1` .
RESULT: F

* * *

test: TOX21_TRB_BLA_Antagonist_Followup_viability: Viability Assessment in the Tox21 Thyroid Hormone Receptor beta Antagonism Beta-lactamase (BLA) Follow-Up Assay (AID 2283961)
Results filed as inconclusive are left out. Activity calls are given as the source filed them. Rule for the calls: active = hit-call score of the fitted dose curve at least 0.9, where 1 is the maximum; inconclusive = response in the unintended direction; inactive = score below 0.9.
ASSAY METRIC: outcome

Worked examples follow.
INSERT INTO assay_data (compound, observed_value) VALUES
  ('O=c1[nH]c(=O)n([C@H]2C[C@H](O)[C@@H](CO)O2)cc1F', 'inactive'),
  ('Oc1c(I)cc(I)c2cccnc12', 'inactive'),
  ('NC(N)=NCc1cccc(I)c1', 'inactive'),
  ('COc1ccc2nc(NC(=O)Nc3ccccc3)sc2c1', 'inactive'),
  ('Cc1cc(Nc2ccccc2C(=O)O)ccc1Cl', 'inactive');

Documented outcome of `C[C@@H]1C[C@H]2[C@@H]3CCC4=CC(=O)C=C[C@]4(C)[C@@]3(Cl)[C@@H](O)C[C@]2(C)[C@@]1(OC(=O)c1ccco1)C(=O)CCl` : inactive

Input CO[C@H](C(=O)[C@@H](O)[C@@H](C)O)C1Cc2cc3cc(O[C@H]4C[C@@H](O[C@H]5C[C@@H](O)[C@H](O)[C@@H](C)O5)[C@@H](O)[C@@H](C)O4)c(C)c(O)c3c(O)c2C(=O)[C@H]1O[C@H]1C[C@@H](O[C@H]2C[C@@H](O[C@H]3C[C@](C)(O)[C@H](O)[C@@H](C)O3)[C@H](O)[C@@H](C)O2)[C@H](O)[C@@H](C)O1 (stereo partly drawn) . Output outcome: inactive

* * *

read-out: Interleukin-8 (IL8), CXCL8 (gene 3576); assay: BSK_MyoF_IL8: BioMAP Diversity Plus: MyoF Assay for Interleukin-8 (IL8) Biomarker Activity (AID 2284261); conditions: primary human lung fibroblasts
Calls of active or inactive are those of the source. How the source made its calls: active means hit-call score of the fitted dose curve at least 0.9, where 1 is the maximum; inactive means score below 0.9.
Outcome (select one): active, inactive

Reference set (5 entries):
INSERT INTO measurements (compound, class) VALUES
  ('OC(C(F)(F)F)(C(F)(F)F)C(O)(C(F)(F)F)C(F)(F)F', 'inactive'),
  ('Cc1cccnc1', 'inactive'),
  ('O=C(C(=O)c1ccccc1)c1ccccc1', 'inactive'),
  ('CCCCCCC(O)CCCCCCCCCCC(=O)OC (stereo not drawn)', 'inactive'),
  ('COC(=O)/C=C\C(=O)OC', 'inactive');

QUERY: Status in this test for `CN(C)c1ccc(C(c2ccccc2)c2ccc(N(C)C)cc2)cc1` ?
RESULT: inactive

QUERY: Could you kindly confirm the outcome this assay logged for `Oc1cccc2ccccc12` ?
RESULT: active

QUERY: Hi, sorry to bother you, what did the test record for CCCCCCCCCC/C=C/C1CC(=O)OC1=O (stereo not drawn) ?
RESULT: inactive

* * *

test: BSK_3C_Proliferation: Cell Proliferation Assessment in the BioMAP Diversity Plus: 3C Assay (AID 2283006); details: primary human endothelial cells (HUVEC)
Calls of active or inactive are those of the source. Rule for the calls: active = hit-call score of the fitted dose curve at least 0.9, where 1 is the maximum; inactive = score below 0.9.
Classes to choose from: Yes = active, No = inactive

INSERT INTO assay_data (compound, class) VALUES
  ('CCCCCCCCCCC1CO1 (configuration not stated)', 'Yes'),
  ('Cc1c(C(N)=O)cc([N+](=O)[O-])cc1[N+](=O)[O-]', 'No'),
  ('CC[N+](CC)(CC(=O)Nc1c(C)cccc1C)Cc1ccccc1 (tested in a mixture with another compound)', 'No');

QUERY: Which outcome was assigned to CC(C)C1OCCN1CCOC(=O)NCCCCCCNC(=O)OCCN1CCOC1C(C)C (configuration not stated) in this test?
RESULT: No

QUERY: Field: outcome | Entry: `COC(=O)/C=C\C(=O)OC`
RESULT: No

QUERY: Per the records of this test, what outcome belongs to `O=C(C(=O)c1ccccc1)c1ccccc1` ?
RESULT: No

QUERY: Entry `Oc1cccc2ccccc12` : call = ?
RESULT: No

QUERY: Would you mind telling me which call this test gave `CCC(C)=NO` ?
RESULT: No

* * *

target: Estrogen receptor beta (Homo sapiens) (UniProt Q92731); experiment: OT_ER_ERbERb_1440: Odyssey Thera (OT) 24-hour HEK293T Protein-Complementation Assay for Estrogen Receptor-beta/-beta Homodimer (AID 2283380);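 also: fluorescence gain from ER beta LBD homodimer complementation read by laser scanning cytometry; scored as signal increase over DMSO baseline for both agonists and antagonists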
Sequence (Q92731 whole entry, looked up, the tested form may be a part): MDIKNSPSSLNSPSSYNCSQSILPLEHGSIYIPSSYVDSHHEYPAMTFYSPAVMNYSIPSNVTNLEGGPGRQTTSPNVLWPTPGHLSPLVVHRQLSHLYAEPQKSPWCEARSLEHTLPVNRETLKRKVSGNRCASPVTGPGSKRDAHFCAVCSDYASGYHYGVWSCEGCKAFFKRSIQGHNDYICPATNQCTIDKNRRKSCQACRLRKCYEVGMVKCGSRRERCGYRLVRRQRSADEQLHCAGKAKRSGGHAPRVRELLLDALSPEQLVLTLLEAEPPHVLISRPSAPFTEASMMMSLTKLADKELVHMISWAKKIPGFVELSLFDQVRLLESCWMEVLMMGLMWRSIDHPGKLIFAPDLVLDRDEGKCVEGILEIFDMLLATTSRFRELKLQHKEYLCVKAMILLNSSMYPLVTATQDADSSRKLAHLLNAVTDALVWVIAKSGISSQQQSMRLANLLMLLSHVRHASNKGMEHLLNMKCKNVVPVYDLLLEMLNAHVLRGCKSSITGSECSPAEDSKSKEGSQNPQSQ
The source made the active and inactive calls. The calls were made as follows: active = hit-call score of the fitted dose curve at least 0.9, where 1 is the maximum; inconclusive = response in the unintended direction; inactive = score below 0.9.
Select the matching outcome among active, inactive

Solved entries (count: 3):
INSERT INTO results (compound, class) VALUES
  ('O=C(O)/C=C/C(=O)O', 'inactive'),
  ('C=C1CC[C@H]2C[C@@H]1C2(C)C', 'inactive'),
  ('O=C(Oc1ccccc1)c1ccccc1', 'inactive');

Turning now to a further compound:
QUERY: Name the outcome recorded for `Sc1nc2ccccc2s1` in the assay.
RESULT: inactive

* * *

test system: Brachyury (BRA) Protein Expression, Deisenroth Lab, TBXT (gene 6862); experiment: CCTE_Deisenroth_DEVTOX-GLR_Pluri_BRA: CCTE's DevTox GLR-Pluri Assay Evaluation of Brachyury (BRA) Protein Expression, Deisenroth Lab (AID 2284429)
Records with an inconclusive call do not appear. Activity calls are given as the source filed them. Rule for the calls: active = hit-call score of the fitted dose curve at least 0.9, where 1 is the maximum; inconclusive = response in the unintended direction; inactive = score below 0.9.
Property: AC50; scope: individual compounds

Some solved cases for reference:
INSERT INTO assay_data (compound, observed_value) VALUES
  ('CNC(=O)c1cc(Oc2ccc(NC(=O)Nc3ccc(Cl)c(C(F)(F)F)c3)cc2)ccn1', '1.3 µM (active)'),
  ('Cc1nc(Nc2ncc(C(=O)Nc3c(C)cccc3Cl)s2)cc(N2CCN(CCO)CC2)n1', '0.0529 µM (active)');

Query `CC1=C(/C=C/C(C)=C/C=C/C(C)=C\C(=O)O)C(C)(C)CCC1` yields AC50 of 16.7 µM (active)

* * *

assay: CCTE_Shafer_MEA_acute_burst_percentage_std: CCTE's Neural Acute Assay for Standard Deviation of Burst Percentage, Shafer Lab (AID 2284018);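 also: fitted in the negative direction so actives lower burst percentage SD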
The source made the active and inactive calls. Rule for the calls: active = hit-call score of the fitted dose curve at least 0.9, where 1 is the maximum; inactive = score below 0.9.
ASSAY METRIC: AC50

Reference set, count: 4
INSERT INTO assay_data (compound, assay_metric, observed_value) VALUES
  ('COc1ccc(C(=O)c2ccccc2O)c(O)c1', 'AC50', 'inactive'),
  ('CC1(C)S[C@@H]2[C@H](NC(=O)[C@H](N)c3ccccc3)C(=O)N2[C@H]1C(=O)O', 'AC50', 'inactive'),
  ('CN(C)C(=O)C(CCN1CCC(O)(c2ccc(Cl)cc2)CC1)(c1ccccc1)c1ccccc1', 'AC50', '0.068 µM (active)'),
  ('Cc1c(C(N)=O)cc([N+](=O)[O-])cc1[N+](=O)[O-]', 'AC50', 'inactive');

Lab note: measured AC50 of `CCC[Si](OC(C)=O)(OC(C)=O)OC(C)=O` was inactive

// AC50 value for `NC(N)=Nc1nc(CSCCC(N)=NS(N)(=O)=O)cs1` : inactive

Recorded result, CN(C)CCC(c1ccc(Cl)cc1)c1ccccn1 (stereo not given) , AC50: 27.1 µM (active)

AC50 reported for this compound `COc1cc(CNC(=O)CCCC/C=C/C(C)C)ccc1O` : 8.5 µM (active)

Kindly note the recorded AC50 for `O=[N+]([O-])c1cc(S(=O)(=O)Nc2ccccc2)ccc1Nc1ccccc1` , which is 15 µM (active)

The recorded AC50 for entry `C1CN(CCOCCN2CCOCC2)CCO1` equals inactive
